# bioavailability annotations
# protocol details: Oral bioavailability in rat at 5 mg/kg
# Format: ADME, organism-based
# protocol conditions: in vivo
Report the value in % with no unit label.

[[record]]
smiles_notation = "COC[C@]12Cc3cnn(-c4ccc(F)cc4)c3C=C1CCN(S(=O)(=O)c1ccc(C(C)(C)C)cc1)C2"
recorded_result = 11

[[record]]
smiles_notation = "COC[C@]12Cc3cnn(-c4ccc(F)cc4)c3C=C1CCN(S(=O)(=O)c1ccc(F)cc1)C2"
recorded_result = 22

[[record]]
smiles_notation = "CC(C)(C)c1ccc(S(=O)(=O)N2CCC3=Cc4c(cnn4-c4ccc(F)cc4)C[C@]3(CN3CCOCC3)C2)cc1"
recorded_result = 10


Prompt line: I have this compound here, CC(C)(C)c1ccc(S(=O)(=O)N2CCC3=Cc4c(cnn4-c4ccc(F)cc4)C[C@]3(C)C2)cc1 , and I need its recorded bioavailability.
Response line: 13

Prompt line: Try this compound too: COC[C@]12Cc3cnn(-c4ccc(F)cc4)c3C=C1CCN(S(=O)(=O)c1ccccc1)C2
Response line: 3

Prompt line: Try this compound too: COC[C@]12Cc3cnn(-c4ccc(F)cc4)c3C=C1CCN(S(=O)(=O)c1ccc(C(F)(F)F)cc1)C2
Response line: 16

====

# system tested: Glucocorticoid receptor (Homo sapiens, UniProt P04150)
# Sequence (P04150 whole entry): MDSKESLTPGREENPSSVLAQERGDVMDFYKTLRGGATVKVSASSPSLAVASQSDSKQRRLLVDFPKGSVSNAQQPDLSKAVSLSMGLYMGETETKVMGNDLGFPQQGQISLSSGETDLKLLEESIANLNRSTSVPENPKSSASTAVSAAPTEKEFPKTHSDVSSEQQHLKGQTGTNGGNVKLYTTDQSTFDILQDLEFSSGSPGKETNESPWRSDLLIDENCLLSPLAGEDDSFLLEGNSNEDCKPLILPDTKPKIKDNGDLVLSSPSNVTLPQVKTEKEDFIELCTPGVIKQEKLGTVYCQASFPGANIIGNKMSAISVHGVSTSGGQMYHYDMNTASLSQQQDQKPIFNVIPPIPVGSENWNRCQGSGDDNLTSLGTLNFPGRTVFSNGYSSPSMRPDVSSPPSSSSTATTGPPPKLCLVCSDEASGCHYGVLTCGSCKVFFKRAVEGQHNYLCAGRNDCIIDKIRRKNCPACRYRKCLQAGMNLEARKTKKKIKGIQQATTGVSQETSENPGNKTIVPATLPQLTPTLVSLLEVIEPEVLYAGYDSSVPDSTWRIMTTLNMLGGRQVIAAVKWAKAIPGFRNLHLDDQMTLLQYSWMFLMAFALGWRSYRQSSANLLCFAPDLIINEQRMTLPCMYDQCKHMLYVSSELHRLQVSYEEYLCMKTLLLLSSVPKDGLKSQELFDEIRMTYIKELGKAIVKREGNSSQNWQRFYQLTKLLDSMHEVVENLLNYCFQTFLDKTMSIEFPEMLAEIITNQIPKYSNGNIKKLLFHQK
# protocol details: Displacement of [3H]dexamethasone from human recombinant GR
reported metric: Ki (nM)
Report the value in nM with no unit label.

[[record]]
smiles_notation = "C[C@]12Cc3cnn(-c4ccc(F)cc4)c3C=C1CCN(S(=O)(=O)c1ccccc1F)C2"
reported_metric = "Ki"
recorded_result = 34

[[record]]
smiles_notation = "CC(C)(C)c1ccc(S(=O)(=O)N2CCC3=Cc4c(cnn4-c4ccc(F)cc4)C[C@]3(CN3CCC3)C2)cc1"
reported_metric = "Ki"
recorded_result = 1.4


Now take the following compound into account.
Prompt line: I have this compound here, COC[C@]12Cc3cnn(-c4ccc(F)cc4)c3C=C1CCN(S(=O)(=O)c1ccccc1)C2 , and I need its recorded Ki.
Response line: 1
